Quick note: these are IC50 numbers for system: D(3) dopamine receptor (Homo sapiens)
Sequence (P35462 whole entry): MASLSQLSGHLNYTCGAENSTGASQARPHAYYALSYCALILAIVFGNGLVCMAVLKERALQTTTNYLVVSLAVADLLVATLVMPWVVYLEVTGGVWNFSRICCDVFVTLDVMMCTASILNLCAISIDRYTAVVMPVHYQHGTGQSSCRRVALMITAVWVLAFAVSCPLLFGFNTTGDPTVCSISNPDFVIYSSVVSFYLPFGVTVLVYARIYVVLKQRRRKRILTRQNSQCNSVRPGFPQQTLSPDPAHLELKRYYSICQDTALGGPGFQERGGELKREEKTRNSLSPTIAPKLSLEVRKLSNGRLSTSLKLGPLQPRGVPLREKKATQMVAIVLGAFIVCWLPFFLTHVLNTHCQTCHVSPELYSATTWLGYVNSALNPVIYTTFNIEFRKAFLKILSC
API: value field is a number in nM; no unit string.

# example entries with known answers
{"columns": ["molecule", "IC50 [nM]"],
 "data": [
  ["CN1CCN(C2=Nc3ccccc3Oc3ccc(OS(C)(=O)=O)cc32)CC1", 350],
  ["CN1CCN(C2=Nc3ccccc3Oc3ccc(Cl)cc32)CC1 [LOXAPINE]", 22]
]}

For reference, reported IC50 for CN1CCN(C2=Nc3cc(Cl)ccc3Nc3ccc(OS(=O)(=O)C(F)(F)F)cc32)CC1 stands at 52

Per the record, CN1CCN(C2=Nc3ccccc3Nc3ccc(Cl)cc32)CC1 [ISOCLOZAPINE] has IC50 of 120

---

Quick reference for pIC50 among some compounds
tested.target: 5-hydroxytryptamine receptor 2A (Rattus norvegicus, UniProt P14842)
Sequence (P14842 whole entry): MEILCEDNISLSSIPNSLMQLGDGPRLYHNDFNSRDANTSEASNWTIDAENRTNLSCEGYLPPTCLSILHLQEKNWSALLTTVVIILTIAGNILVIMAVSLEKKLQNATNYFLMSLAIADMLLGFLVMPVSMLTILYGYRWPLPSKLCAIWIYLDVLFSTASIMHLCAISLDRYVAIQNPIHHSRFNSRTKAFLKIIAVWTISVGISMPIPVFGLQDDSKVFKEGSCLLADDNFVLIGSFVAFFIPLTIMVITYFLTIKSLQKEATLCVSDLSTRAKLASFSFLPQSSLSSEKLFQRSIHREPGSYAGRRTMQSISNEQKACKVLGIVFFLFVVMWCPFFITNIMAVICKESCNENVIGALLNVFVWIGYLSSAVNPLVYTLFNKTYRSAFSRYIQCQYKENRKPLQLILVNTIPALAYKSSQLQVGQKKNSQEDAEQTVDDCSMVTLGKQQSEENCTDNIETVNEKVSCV
Recall that pIC50 is obtained by taking minus log10 of the concentration measured in molar.

{"columns": ["smiles.string", "result"],
 "data": [
  ["CN1CCN(C2=Nc3ccccc3Oc3ccc(OS(C)(=O)=O)cc32)CC1", 6.64]
]}

# next compound below
Lab entry: 5-hydroxytryptamine receptor 2A (Rattus norvegicus, UniProt P14842) assay, compound CN1CCN(C2=Nc3ccccc3Sc3ccc(OS(=O)(=O)C(F)(F)F)cc32)CC1 , pIC50 = 6.96

---

Each record here notes measured selectivity ratio.
assay.overview: in vivo
experimental.context: sc
Description: Therapeutic ratio by Subcutaneous dose of administration (quotient ED50 catalepsy/ED50 climbing)
Answer field: number only, no words.

{"columns": ["smiles.string", "selectivity ratio"],
 "data": [
  ["CN1CCN(C2=Nc3ccccc3Sc3ccc(OS(=O)(=O)C(F)(F)F)cc32)CC1", 11.5]
]}

// switching to the query compound
Input CN1CCN(C2=Nc3ccccc3Sc3ccc(Cl)cc32)CC1 . Output selectivity ratio: 2.7

---

D(1A) dopamine receptor (Rattus norvegicus, UniProt P18901) data, read-out pIC50
Sequence (P18901 whole entry): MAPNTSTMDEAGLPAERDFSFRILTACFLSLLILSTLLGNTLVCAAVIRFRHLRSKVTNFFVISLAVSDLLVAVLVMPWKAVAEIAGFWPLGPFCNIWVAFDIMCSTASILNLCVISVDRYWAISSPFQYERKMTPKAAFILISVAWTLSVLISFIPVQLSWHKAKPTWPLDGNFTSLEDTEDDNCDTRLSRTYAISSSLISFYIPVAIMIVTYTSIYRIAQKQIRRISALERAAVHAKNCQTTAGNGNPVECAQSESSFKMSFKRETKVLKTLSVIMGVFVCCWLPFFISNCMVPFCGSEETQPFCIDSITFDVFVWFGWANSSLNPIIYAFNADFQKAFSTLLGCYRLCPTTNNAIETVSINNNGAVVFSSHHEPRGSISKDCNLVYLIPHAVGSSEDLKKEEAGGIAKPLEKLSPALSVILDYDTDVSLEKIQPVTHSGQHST
Conceptually, pIC50 converts a concentration in mol/L into minus its log10.

{"columns": ["smiles.string", "tested.target", "pIC50"],
 "data": [
  ["CN1CCN(C2=Nc3cc(OS(C)(=O)=O)ccc3Nc3ccccc32)CC1", "D(1A) dopamine receptor (Rattus norvegicus, UniProt P18901)", 4.66]
]}

Entry CN1CCN(C2=Nc3ccccc3Sc3ccc(OS(=O)(=O)C(F)(F)F)cc32)CC1 , tested on D(1A) dopamine receptor (Rattus norvegicus, UniProt P18901), has a reported pIC50 of 7.00

---

tested.target: D(2) dopamine receptor (Homo sapiens, UniProt P14416)
Sequence (P14416 whole entry): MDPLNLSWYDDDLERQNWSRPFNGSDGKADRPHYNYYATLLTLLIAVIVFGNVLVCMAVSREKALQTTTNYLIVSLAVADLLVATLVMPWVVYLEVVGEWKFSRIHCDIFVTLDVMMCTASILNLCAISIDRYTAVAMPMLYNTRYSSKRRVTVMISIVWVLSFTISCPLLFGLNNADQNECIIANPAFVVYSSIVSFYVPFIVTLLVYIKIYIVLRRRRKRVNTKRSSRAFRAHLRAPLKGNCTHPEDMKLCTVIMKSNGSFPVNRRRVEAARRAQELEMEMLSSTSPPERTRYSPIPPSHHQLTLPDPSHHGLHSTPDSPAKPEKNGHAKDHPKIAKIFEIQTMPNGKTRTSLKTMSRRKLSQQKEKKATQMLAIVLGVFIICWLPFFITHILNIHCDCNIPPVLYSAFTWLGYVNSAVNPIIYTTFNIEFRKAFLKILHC
assay.overview: Compound was tested in vitro for its binding affinity towards human Dopamine receptor D2
value.type: IC50

Please fill in: IC50 reported for CN1CCN(C2=Nc3ccccc3Oc3ccc(OS(C)(=O)=O)cc32)CC1 = > 1000 nM

---

assay.overview: Partition coefficient (logP)
Assay type: physicochemical
experimental.context: octanol/water
value.type: logP

Worked cases, answers included:
{"columns": ["smiles.string", "logP"],
 "data": [
  ["CN1CCN(C2=Nc3cc(Cl)ccc3Nc3ccccc32)CC1", 3.48],
  ["CN1CCN(C2=Nc3cc(OS(C)(=O)=O)ccc3Nc3ccccc32)CC1", 1.8],
  ["CN1CCN(C2=Nc3ccccc3Nc3ccc(OS(=O)(=O)C(F)(F)F)cc32)CC1", 3.58],
  ["COc1ccc2c(c1)C(N1CCN(C)CC1)=Nc1ccccc1N2", 2.71],
  ["COc1ccc2c(c1)N=C(N1CCN(C)CC1)c1ccccc1N2", 2.71]
]}

Now, please, on to the next molecule.
The molecule listed as CN1CCN(C2=Nc3ccccc3Oc3ccc(OS(=O)(=O)C(F)(F)F)cc32)CC1 has a reported logP of 3.76
